Reference source for all entries: paper PMC5674221

- protocol notes: Cytotoxicity, L6 cells
- applied conditions: rat
In this section we review reported IC50 values for a set of molecules.

Reference set (3 entries):
CC(C)[C@H]1OC(=O)[C@H](Cc2ccccc2)N(C)C(=O)[C@@H](C(C)C)OC(=O)[C@H](Cc2ccccc2)N(C)C(=O)[C@@H](C(C)C)OC(=O)[C@H](Cc2ccccc2)N(C)C(=O)[C@@H](C(C)C)OC(=O)[C@H](Cc2ccccc2)N(C)C1=O = 1.58 µM
CC(C)[C@H]1C(=O)O[C@H](C(C)C)C(=O)N(C)[C@@H](C(C)C)C(=O)O[C@H](C(C)C)C(=O)N(C)[C@@H](C(C)C)C(=O)O[C@H](C(C)C)C(=O)N1C = 4.11 µM
CC(C)C[C@H]1C(=O)O[C@H](C(C)C)C(=O)N(C)[C@@H](CC(C)C)C(=O)O[C@H](C(C)C)C(=O)N(C)[C@@H](CC(C)C)C(=O)O[C@H](C(C)C)C(=O)N1C [hexa-bassianolide] = 6.35 µM

// below: IC50 requested for another molecule
Prompt: Consider the molecule CC(C)C[C@H]1C(=O)O[C@H](C(C)C)C(=O)N(C)[C@@H](CC(C)C)C(=O)O[C@H](C(C)C)C(=O)N(C)[C@@H](CC(C)C)C(=O)O[C@H](C(C)C)C(=O)N(C)[C@@H](CC(C)C)C(=O)O[C@H](C(C)C)C(=O)N1C [bassianolide] and give its measured IC50.
Response: 5.11 µM
